Test system: Escherichia coli
protocol-text: Antibacterial activity against Escherichia coli assessed as reduction in bacterial cell viability incubated for 20 to 24 hrs by REMA method
Assay type: functional
value-kind: MIC (mg/L)
Report the figure in mg/L without appending any unit label.

- COc1ccc(CC(=O)Nc2cccc(-n3c(/C=C/c4ccc(Cl)cc4)nc4ccccc4c3=O)c2)cc1: 62.5
- CN[C@@H]1[C@H](O[C@H]2[C@H](O[C@H]3[C@H](O)[C@@H](O)[C@H](N=C(N)N)[C@@H](O)[C@@H]3N=C(N)N)O[C@@H](C)[C@]2(O)C=O)O[C@@H](CO)[C@H](O)[C@H]1O: 7.8
- COc1ccc(C(=O)Nc2cccc(-n3c(/C=C/c4ccc(F)cc4)nc4ccccc4c3=O)c2)cc1OC: 62.5
- O=C(Nc1cccc(-n2c(/C=C/c3ccc(F)cc3)nc3ccccc3c2=O)c1)c1ccccc1: 62.5

The recorded MIC for `Cc1ccccc1C(=O)Nc1cccc(-n2c(/C=C/c3ccc(F)cc3)nc3ccccc3c2=O)c1` is 62.5

// `O=C(Nc1cccc(-n2c(/C=C/c3ccc(F)cc3)nc3ccccc3c2=O)c1)c1cccs1` : MIC value = 62.5

Lab book: MIC of `Cc1ccccc1C(=O)Nc1cccc(-n2c(/C=C/c3ccc(C#N)cc3)nc3ccccc3c2=O)c1` noted as 62.5

// sample `N#Cc1ccc(/C=C/c2nc3ccccc3c(=O)n2-c2cccc(NC(=O)c3ccccc3)c2)cc1` , its MIC was 62.5

###

System: Staphylococcus aureus
protocol-text: Antibacterial activity against Staphylococcus aureus assessed as reduction in bacterial cell viability incubated for 20 to 24 hrs by REMA method
Type: functional
value-kind: MIC (µg/mL)
Give the quantity in µg/mL, number only.

Known results for compounds:
- COc1ccc(C(=O)Nc2cccc(-n3c(/C=C/c4ccc(Cl)cc4)nc4ccccc4c3=O)c2)cc1OC: 62.5
- NC[C@H]1O[C@H](O[C@H]2[C@H](O)[C@@H](O[C@H]3O[C@H](CO)[C@@H](O)[C@H](N)[C@H]3O)[C@H](N)C[C@@H]2N)[C@H](O)[C@@H](O)[C@@H]1O: 7.8
- COc1ccc(CC(=O)Nc2cccc(-n3c(/C=C/c4ccc(Cl)cc4)nc4ccccc4c3=O)c2)cc1: 15.6

The compound listed as `COc1ccc(C(=O)Nc2cccc(-n3c(/C=C/c4ccc(F)cc4)nc4ccccc4c3=O)c2)cc1OC` has a reported MIC of 62.5

MIC measured on `O=C(Nc1cccc(-n2c(/C=C/c3ccc(F)cc3)nc3ccccc3c2=O)c1)c1cccs1` = 31.2

Please fill in: MIC reported for `CN[C@@H]1[C@H](O[C@H]2[C@H](O[C@H]3[C@H](O)[C@@H](O)[C@H](N=C(N)N)[C@@H](O)[C@@H]3N=C(N)N)O[C@@H](C)[C@]2(O)C=O)O[C@@H](CO)[C@H](O)[C@H]1O` = 7.8

Consider `N#Cc1ccc(/C=C/c2nc3ccccc3c(=O)n2-c2cccc(NC(=O)c3cccs3)c2)cc1` . Its measured MIC is 62.5

###

System: Escherichia coli
protocol-text: Antibacterial activity against Escherichia coli assessed as reduction in bacterial cell viability incubated for 20 to 24 hrs by REMA method
Format: functional
value-kind: MIC (µg/mL)
Write the answer as a number in µg/mL, unit excluded.

Sample answers from the record:
* N#Cc1ccc(/C=C/c2nc3ccccc3c(=O)n2-c2cccc(NC(=O)c3cccs3)c2)cc1 | 62.5
* COc1ccc(CC(=O)Nc2cccc(-n3c(/C=C/c4ccc(F)cc4)nc4ccccc4c3=O)c2)cc1 | 62.5
* COc1ccc(C(=O)Nc2cccc(-n3c(/C=C/c4ccc(Cl)cc4)nc4ccccc4c3=O)c2)cc1OC | 62.5

# evaluate next
Item: `NC[C@H]1O[C@H](O[C@H]2[C@H](O)[C@@H](O[C@H]3O[C@H](CO)[C@@H](O)[C@H](N)[C@H]3O)[C@H](N)C[C@@H]2N)[C@H](O)[C@@H](O)[C@@H]1O` | MIC: 7.8
